Value source: ChEMBL document CHEMBL2016550

assayed.system: Phosphatidylinositol 4,5-bisphosphate 3-kinase catalytic subunit gamma isoform (Homo sapiens, UniProt P48736)
Sequence (P48736 whole entry, canonical isoform): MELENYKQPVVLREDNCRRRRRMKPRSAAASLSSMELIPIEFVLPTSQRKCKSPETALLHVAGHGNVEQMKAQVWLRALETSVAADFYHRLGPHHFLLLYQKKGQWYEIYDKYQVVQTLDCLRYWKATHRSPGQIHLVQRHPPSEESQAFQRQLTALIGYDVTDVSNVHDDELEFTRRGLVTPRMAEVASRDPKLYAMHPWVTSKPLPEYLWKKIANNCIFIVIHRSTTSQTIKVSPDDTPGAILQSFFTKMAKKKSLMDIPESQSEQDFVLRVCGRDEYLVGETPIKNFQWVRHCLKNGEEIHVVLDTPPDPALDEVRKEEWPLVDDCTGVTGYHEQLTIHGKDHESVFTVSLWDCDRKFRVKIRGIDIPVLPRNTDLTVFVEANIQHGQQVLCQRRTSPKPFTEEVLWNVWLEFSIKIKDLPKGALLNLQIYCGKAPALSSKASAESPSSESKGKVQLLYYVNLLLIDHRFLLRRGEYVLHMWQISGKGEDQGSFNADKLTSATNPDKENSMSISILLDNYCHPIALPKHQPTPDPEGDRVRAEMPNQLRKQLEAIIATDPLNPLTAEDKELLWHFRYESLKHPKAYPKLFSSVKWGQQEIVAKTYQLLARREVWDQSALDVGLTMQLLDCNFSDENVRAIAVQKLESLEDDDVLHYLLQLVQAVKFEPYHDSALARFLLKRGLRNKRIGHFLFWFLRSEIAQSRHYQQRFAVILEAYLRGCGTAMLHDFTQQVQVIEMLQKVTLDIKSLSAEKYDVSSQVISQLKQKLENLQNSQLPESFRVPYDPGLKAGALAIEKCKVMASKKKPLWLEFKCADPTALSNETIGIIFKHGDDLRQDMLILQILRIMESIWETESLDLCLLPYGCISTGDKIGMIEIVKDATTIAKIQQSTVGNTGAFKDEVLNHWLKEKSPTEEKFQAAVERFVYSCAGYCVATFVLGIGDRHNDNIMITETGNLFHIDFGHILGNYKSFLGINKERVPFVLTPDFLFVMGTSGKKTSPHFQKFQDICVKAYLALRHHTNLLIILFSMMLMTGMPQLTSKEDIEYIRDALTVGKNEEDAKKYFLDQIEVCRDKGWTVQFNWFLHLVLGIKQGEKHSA
protocol.details: Inhibition of PI3Kgamma by continuous read time resolved fluorescence resonance energy transfer displacement assay
pIC50: −log10 of the molar value.
Hi, to clarify the labels: yes (1) covers pIC50 from 6 upward, no (0) covers anything below 6.

Does pIC50 meet or surpass 6 for Cc1c(Cn2c(C)nn3c(=O)cc(N4CCOC(C)C4)nc23)cccc1C(F)(F)F (single isomer, unassigned; enantiomer 2) ?
yes (1)

Does pIC50 meet or surpass 6 for `CSc1nn2c(=O)cc(-c3ccncc3)nc2n1Cc1cccc(Cl)c1Cl` ?
no (0)

Does pIC50 meet or surpass 6 for `Cc1c(Cn2c(C3CC3)nn3c(=O)cc(N4CCOCC4)nc23)cccc1C(F)(F)F` ?
no (0)

Does pIC50 meet or surpass 6 for Cc1nn2c(=O)cc(N3CCOC(C)C3)nc2n1Cc1cccc(Cl)c1Cl (stereo in doubt; 6) ?
no (0)

Does pIC50 meet or surpass 6 for `Cc1nn2c(=O)cc(N3CCOCC3)nc2n1Cc1cccc(Cl)c1Cl` ?
yes (1)

Does pIC50 meet or surpass 6 for `O=c1cc(N2CCOCC2)nc2n(Cc3cccc(Cl)c3Cl)c(C3CC3)nn12` ?
no (0)
